Readings of IC50 for the listed molecules
# measurement target: recombinant human SAE enzyme (Homo sapiens)
# Sequence (Q9UBT2 1-640): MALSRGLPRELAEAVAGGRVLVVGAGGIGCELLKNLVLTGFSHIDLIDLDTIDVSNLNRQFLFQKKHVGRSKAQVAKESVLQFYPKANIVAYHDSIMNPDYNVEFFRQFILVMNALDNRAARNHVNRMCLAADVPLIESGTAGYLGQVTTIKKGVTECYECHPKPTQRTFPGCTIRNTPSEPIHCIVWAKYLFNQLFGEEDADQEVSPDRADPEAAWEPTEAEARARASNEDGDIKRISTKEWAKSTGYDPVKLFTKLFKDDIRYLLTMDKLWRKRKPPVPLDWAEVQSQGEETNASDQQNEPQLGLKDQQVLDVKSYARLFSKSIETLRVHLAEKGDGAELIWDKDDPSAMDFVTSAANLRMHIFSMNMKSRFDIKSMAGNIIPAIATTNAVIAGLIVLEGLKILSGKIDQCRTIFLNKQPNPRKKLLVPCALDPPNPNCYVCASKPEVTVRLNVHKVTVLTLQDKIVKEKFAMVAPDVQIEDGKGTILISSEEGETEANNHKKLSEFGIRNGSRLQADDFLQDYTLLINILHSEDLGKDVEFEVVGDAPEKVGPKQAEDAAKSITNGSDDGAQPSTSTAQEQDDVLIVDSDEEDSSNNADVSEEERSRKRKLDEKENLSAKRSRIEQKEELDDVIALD
# Sequence (Q9UBE0 1-346 partner): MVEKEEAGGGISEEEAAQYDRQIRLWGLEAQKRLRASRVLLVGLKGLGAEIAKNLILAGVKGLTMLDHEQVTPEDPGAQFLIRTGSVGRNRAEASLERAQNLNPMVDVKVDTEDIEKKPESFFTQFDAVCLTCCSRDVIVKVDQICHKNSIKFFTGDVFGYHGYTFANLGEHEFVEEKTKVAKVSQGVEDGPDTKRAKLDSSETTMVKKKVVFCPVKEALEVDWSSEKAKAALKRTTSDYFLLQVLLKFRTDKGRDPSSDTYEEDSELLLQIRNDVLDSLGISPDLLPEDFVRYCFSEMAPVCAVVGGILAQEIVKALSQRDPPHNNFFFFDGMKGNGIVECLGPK
# method description: SAE HTRF Enzyme Assay
# protocol conditions: class symbols A-C
measure name: IC50

molecule | measure name | result
CC#CC(C)n1ccc(C(=O)c2cncnc2N[C@@H]2C[C@H](COS(N)(=O)=O)[C@@H](O)C2)n1 (single isomer, unassigned) [Compound I-86] | IC50 | 100 to 1000 nM
NS(=O)(=O)OC[C@H]1C[C@@H](Nc2ncncc2C(=O)c2ccn(CC3CC3c3ccccc3)c2)[C@@H](F)[C@@H]1O (single isomer, unassigned) [Compound I-9] | IC50 | 10 to 100 nM
NS(=O)(=O)OC[C@H]1C[C@@H](Nc2ncncc2C(=O)c2ccn(/C=C\c3ccccc3)c2)C[C@@H]1O | IC50 | < 10 nM
Cc1ccn(CCn2ccc(C(=O)c3cncnc3N[C@@H]3C[C@H](COS(N)(=O)=O)[C@@H](O)[C@H]3O)n2)n1 | IC50 | 10 to 100 nM
NS(=O)(=O)OC[C@H]1C[C@@H](Nc2ncncc2C(=O)c2ccn(Cc3ccccc3)c2)[C@H](O)[C@@H]1O | IC50 | < 10 nM
NS(=O)(=O)OC[C@H]1C[C@@H](Nc2ncncc2C(=O)c2ccn(Cc3ccc(Cl)c(C(F)(F)F)c3)n2)C[C@@H]1O | IC50 | < 10 nM
CC(c1ccc(C(F)(F)F)o1)n1ccc(C(=O)c2cncnc2N[C@@H]2C[C@H](COS(N)(=O)=O)[C@@H](O)[C@@H]2F)c1 (single isomer, unassigned) [Compound I-304] | IC50 | 10 to 100 nM
NS(=O)(=O)OC[C@H]1C[C@@H](Nc2ncncc2C(=O)c2ccn(Cc3cccc(C(F)(F)F)n3)n2)C[C@@H]1O | IC50 | < 10 nM
NS(=O)(=O)OC[C@H]1C[C@@H](Nc2ncncc2C(=O)c2ccn(Cc3cc(C(F)(F)F)ccc3Cl)n2)[C@H](O)[C@@H]1O | IC50 | < 10 nM
CC(C)(O)c1cccc(Cn2ccc(C(=O)c3cncnc3N[C@@H]3C[C@H](COS(N)(=O)=O)[C@@H](O)C3)n2)c1 | IC50 | 10 to 100 nM
NS(=O)(=O)OC[C@H]1C[C@@H](Nc2ncncc2C(=O)c2ccn(Cc3ccccc3)n2)[C@H](F)[C@@H]1O | IC50 | < 10 nM
Cc1ccc(F)c(Cn2ccc(C(=O)c3cncnc3N[C@@H]3C[C@H](COS(N)(=O)=O)[C@@H](O)C3)n2)c1 | IC50 | < 10 nM
NS(=O)(=O)OC[C@H]1C[C@@H](Nc2ncncc2C(=O)c2ccn(CC(=O)c3cccc(Br)c3)n2)[C@H](O)[C@@H]1O | IC50 | < 10 nM
